System: K98450-129-R-PDC complex spheroid growth, percent test/control;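 further: luminescence used as a proxy for viable cell amount; spheroids exposed to agents for seven days before the viability readout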
assayMethodText: Anticancer human tumor K98450-129-R-PDC patient-derived colon adenocarcinoma cell line growth inhibition [RAS]
testParameters: second compound 0.1 µM; first compound 0.01 µM; hits give low values
readout: viability, T/C

INSERT INTO results (compound, result) VALUES
  ('C=CC(=O)Nc1cc(Nc2nccc(-c3cn(C)c4ccccc34)n2)c(OC)cc1N(C)CCN(C)C + C#Cc1c(F)ccc2cc(O)cc(-c3ncc4c(N5CC6CCC(C5)N6)nc(OCC56CCCN5CC(F)C6)nc4c3F)c12', '100%'),
  ('C=CC(=O)Nc1cc(Nc2nccc(-c3cn(C)c4ccccc34)n2)c(OC)cc1N(C)CCN(C)C + C=CC(=O)N1CCN(c2nc(OCC3CCCN3C)nc3c(F)c(-c4nc(N)cc(C)c4C(F)(F)F)c(Cl)cc23)C(C)C1', '47.9%'),
  ('Nc1ccn(C2OC(CO)C(O)C2(F)F)c(=O)n1 (stereo not given) + C#Cc1c(F)ccc2cc(O)cc(-c3ncc4c(N5CC6CCC(C5)N6)nc(OCC56CCCN5CC(F)C6)nc4c3F)c12', '106%');

Tell me reported viability, T/C for Nc1ccn(C2OC(CO)C(O)C2(F)F)c(=O)n1 (stereo not given) + C=CC(=O)N1CCN(c2nc(OCC3CCCN3C)nc3c(F)c(-c4nc(N)cc(C)c4C(F)(F)F)c(Cl)cc23)C(C)C1 , tested with K98450-129-R-PDC complex spheroid growth, percent test/control.
43%

Another compound: CC(C)n1nc(-c2ccc3oc(N)nc3c2)c2c(N)ncnc21 + C#Cc1c(F)ccc2cc(O)cc(-c3ncc4c(N5CC6CCC(C5)N6)nc(OCC56CCCN5CC(F)C6)nc4c3F)c12
95.9%
